# system-name: Serotonin-(S-1A) (Rattus norvegicus, UniProt P19327)
# Construct: Suspensionen aus Membranmaterial von Rattenhirn; from tissue; host or cells: rat brain membranes
# Sequence (P19327 whole entry): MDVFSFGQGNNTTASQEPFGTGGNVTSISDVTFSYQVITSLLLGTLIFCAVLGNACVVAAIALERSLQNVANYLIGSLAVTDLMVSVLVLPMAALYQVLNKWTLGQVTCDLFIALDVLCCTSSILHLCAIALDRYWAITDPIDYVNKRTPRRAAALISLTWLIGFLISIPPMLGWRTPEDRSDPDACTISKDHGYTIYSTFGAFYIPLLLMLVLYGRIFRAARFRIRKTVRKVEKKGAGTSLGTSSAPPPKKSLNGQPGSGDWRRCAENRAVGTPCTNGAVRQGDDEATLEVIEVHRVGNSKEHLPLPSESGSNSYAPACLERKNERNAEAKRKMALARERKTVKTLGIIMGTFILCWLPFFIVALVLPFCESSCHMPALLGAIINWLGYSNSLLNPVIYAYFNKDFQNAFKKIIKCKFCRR
# measurement-description: 3H-serotonin binding assay on rat brain membrane suspensions
# Set-up: species or system Ratten
# setup-conditions: concentration needed to inhibit 50 % of 2 nM 3H-Serotonin; rat brain membranes; determined graphically; read-out: IC50-Werte
# Excerpt: Die Serotonin-(S-1A)-Aufnahme, welche für Regulatoren mit Rezeptor-eigenschaften bei Serotonin-Agonisten indiziert ist, kann in-vitro wie folgt in einem Bindungsassay nachgewiesen werden: • Man stellt Suspensionen aus Membranmaterial von Rattenhirn her und inkubiert diese mit ^3H-Serotonin gemäss der Vorschrift von Martin und Sanders-Bush, Naunyn-Schmiederberg Arch. Pharmacol. 321, 165 (1982) und Middlemiss und Fozard Eur. J. Pharmacol., 90, 151 (1983). […]
pIC50: −log10 of the molar value.
metric: pIC50

Prompt line: Enter reported pIC50 observed with Serotonin-(S-1A) (Rattus norvegicus, UniProt P19327) for CCCN(CCC)C1CSc2cccc(OCC)c2C1 (stereo not shown)
Response line: ~7.68
